Parameter MIC: see the listing below.
# System: P. aeruginosa
# assay comment: MIC by broth microdilution method (resazurin end point)
# Type: cell-based
# measurement context: Pseudomonas aeruginosa, 24 h at 37 °C

>  <molecule>
O=C1CSC(c2ccco2)N1c1nc(-c2cc(Cl)cc3c2-c2ccc(Cl)cc2C3)cs1 (centres unmarked)

>  <MIC>
62.5 mg/L

$$$$
>  <molecule>
O=C1C(Cl)C(c2cccs2)N1c1nc(-c2cc(Cl)cc3c2-c2ccc(Cl)cc2C3)cs1 (centres unmarked)

>  <MIC>
125 mg/L

$$$$
>  <molecule>
O=C1C(Cl)C(c2ccc[nH]2)N1c1nc(-c2cc(Cl)cc3c2-c2ccc(Cl)cc2C3)cs1 (centres unmarked)

>  <MIC>
125 mg/L

$$$$
>  <molecule>
O=C1C(Cl)C(c2ccnc3ccccc23)N1c1nc(-c2cc(Cl)cc3c2-c2ccc(Cl)cc2C3)cs1 (centres unmarked)

>  <MIC>
62.5 mg/L

$$$$
>  <molecule>
CNC(C)C1CCC(N)C(OC2C(N)CC(N)C(OC3OCC(C)(O)C(NC)C3O)C2O)O1 (centres unmarked) [Gentamicin, reference compound]

>  <MIC>
0.3 mg/L

$$$$

Value source: paper PMC7315563
